# ASSAYED TARGET: human TPO receptor (Homo sapiens)
# Construct: expressed in transfected cells
# PROCEDURE TEXT: Proliferation of TPO-dependent cell line UT7/EPO-mpl, MTT method (Assay Examples 1, 3, 4)
# Type: cell-based
# CONDITIONS: UT7/EPO-mpl cells; value in the presence of 10 ng/ml TPO taken as 100% standard; method of Assay Example 1
MEASURED METRIC: Efficacy (%) (maximal growth rate)

1. CC1=NN(c2ccc(I)cc2)C(=O)C1=C(C)NNC(=O)c1ccc(O)cc1O :: 74%
2. CC1=NN(c2ccc(C)c(C)c2)C(=O)C1=C(C)NNC(=O)c1cccc(O)c1 :: 84%
3. CC1=NN(c2ccc(C)c(C)c2)C(=O)C1=CNNC(=O)c1ccc(O)cc1O :: 84%
4. CC1=NN(c2cccc(C(F)(F)F)c2)C(=O)C1=C(C)NNC(=O)c1cc2ccccc2cc1O :: 48%

----------
# ASSAYED TARGET: human TPO receptor (Homo sapiens, UniProt P40238)
# Construct: expressed in transfected cells
# Sequence (P40238 26-635): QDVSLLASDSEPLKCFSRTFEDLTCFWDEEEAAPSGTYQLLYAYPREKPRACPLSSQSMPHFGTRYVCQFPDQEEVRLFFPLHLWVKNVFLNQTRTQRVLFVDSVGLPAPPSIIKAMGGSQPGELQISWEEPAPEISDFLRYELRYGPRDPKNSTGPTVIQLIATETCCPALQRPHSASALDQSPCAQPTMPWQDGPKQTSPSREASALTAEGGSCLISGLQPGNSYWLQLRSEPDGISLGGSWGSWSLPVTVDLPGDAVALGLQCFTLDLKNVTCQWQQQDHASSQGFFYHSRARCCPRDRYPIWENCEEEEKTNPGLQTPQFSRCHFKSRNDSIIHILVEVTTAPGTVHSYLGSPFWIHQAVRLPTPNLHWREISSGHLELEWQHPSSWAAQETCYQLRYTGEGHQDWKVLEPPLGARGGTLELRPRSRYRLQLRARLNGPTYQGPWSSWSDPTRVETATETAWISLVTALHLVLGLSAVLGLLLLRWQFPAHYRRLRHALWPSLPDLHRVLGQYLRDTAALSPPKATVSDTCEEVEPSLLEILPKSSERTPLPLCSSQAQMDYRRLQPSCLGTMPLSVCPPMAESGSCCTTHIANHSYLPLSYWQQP
# PROCEDURE TEXT: Proliferation of TPO-dependent cell line UT7/EPO-mpl, MTT method (Assay Examples 1, 3, 4)
# Assay type: cell-based
# CONDITIONS: UT7/EPO-mpl cells; value in the presence of 10 ng/ml TPO taken as 100% standard; method of Assay Example 1
MEASURED METRIC: Efficacy (%) (maximal growth rate)

1. CC1=NN(c2ccc(Cl)c(Cl)c2)C(=O)C1=C(C)NNC(=O)c1ccc([N+](=O)[O-])cc1 [compound 68] :: 26
2. CC1=NN(c2ccc(C(C)(C)C)cc2)C(=O)C1=C(C)NNC(=O)c1cccc(C(=O)O)c1 [compound 12] :: 100
3. CC1=NN(c2cccc(C(F)(F)F)c2)C(=O)C1=C(C)NNC(=O)c1ccccc1O [compound 45] :: 74
4. CC1=NN(c2cccc([N+](=O)[O-])c2)C(=O)C1=C(C)NNC(=O)c1ccc(C(C)(C)C)cc1 [compound 88] :: 70
5. CC1=NN(c2ccc(Cl)c(Cl)c2)C(=O)C1=C(C)NNC(=O)c1cccc(N)c1 [compound 78] :: 69
6. CC1=NN(c2ccc(C(F)(F)F)cc2)C(=O)C1=C(C)NNC(=O)c1ccc(O)cc1O [compound 33] :: 96
7. CC1=NN(c2ccccc2)C(=O)C1=C(C)NNC(=O)c1ccc(O)c(O)c1 [compound 20] :: 91
8. CC1=NN(c2ccccc2)C(=O)C1=C(C)NNC(=O)c1cccc([N+](=O)[O-])c1 [compound 14] :: 91

----------
# ASSAYED TARGET: human TPO receptor (Homo sapiens)
# Construct: expressed in transfected cells
# PROCEDURE TEXT: Proliferation of TPO-dependent cell line UT7/EPO-mpl, MTT method (Assay Examples 1, 3, 4)
# Format: cell-based
# CONDITIONS: UT7/EPO-mpl cells; concentration giving 50% of the maximum cell growth observed with the same compound
EC50 reference
MEASURED METRIC: EC50

1. CC1=NN(c2cccc(C(F)(F)F)c2)C(=O)C1=C(C)NNC(=O)c1cccc(N)c1 [compound 89] :: 0.039 µg/mL
2. CC1=NN(c2ccc(C(C)(C)C)cc2)C(=O)C1=C(C)NNC(=O)c1ccc(C(=O)O)cc1 [compound 5] :: 0.0034 µg/mL
3. CC1=NN(c2ccc(C)c(C)c2)C(=O)C1=C(C)NNC(=O)c1ccccc1[N+](=O)[O-] [compound 58] :: 0.032 µg/mL
4. CC1=NN(c2ccc(Cl)c(Cl)c2)C(=O)C1=C(C)NNC(=O)c1ccc([N+](=O)[O-])cc1 [compound 68] :: 0.21 µg/mL
5. CC1=NN(c2ccc(C(F)(F)F)cc2)C(=O)C1=C(C)NNC(=O)c1ccccc1[N+](=O)[O-] [compound 35] :: 0.034 µg/mL
6. CC1=NN(c2ccc(Cl)c(Cl)c2)C(=O)C1=C(C)NNC(=O)c1ccc(N)cc1 [compound 77] :: 0.0051 µg/mL
7. CC1=NN(c2ccc(C)c(C)c2)C(=O)C1=C(C)NNC(=O)c1ccc(C(C)(C)C)cc1 [compound 76] :: 0.046 µg/mL
8. CC1=NN(c2ccc(Cl)c(Cl)c2)C(=O)C1=C(C)NNC(=O)c1ccc(C(F)(F)F)cc1 [compound 79] :: 0.16 µg/mL
9. CC1=NN(c2cccc(C(F)(F)F)c2)C(=O)C1=C(C)NNC(=O)c1ccc(O)c(O)c1 [compound 49] :: 0.0091 µg/mL
10. CC1=NN(c2cccc(C(F)(F)F)c2)C(=O)C1=C(C)NNC(=O)c1ccc(O)cc1O [compound 48] :: 0.008 µg/mL
11. CC1=NN(c2ccc(C(F)(F)F)cc2)C(=O)C1=C(C)NNC(=O)c1ccc(O)cc1O [compound 33] :: 0.0011 µg/mL
12. CC1=NN(c2ccc(Cl)c(Cl)c2)C(=O)C1=C(C)NNC(=O)c1ccc(C(C)(C)C)cc1 [compound 80] :: 0.64 µg/mL
13. CC1=NN(c2ccc(Cl)c(Cl)c2)C(=O)C1=C(C)NNC(=O)c1cccc([N+](=O)[O-])c1 [compound 67] :: 0.033 µg/mL
14. CC1=NN(c2ccc(Cl)c(Cl)c2)C(=O)C1=C(C)NNC(=O)c1ccc(O)c(O)c1 [compound 65] :: 0.0089 µg/mL
15. CC1=NN(c2ccc(C(C)(C)C)cc2)C(=O)C1=C(C)NNC(=O)c1cccc([N+](=O)[O-])c1 [compound 15] :: 0.023 µg/mL
16. CC1=NN(c2ccc(C(C)(C)C)cc2)C(=O)C1=C(C)NNC(=O)c1cccc(O)c1 [compound 81] :: 0.0072 µg/mL
17. CC1=NN(c2ccc(C)c(C)c2)C(=O)C1=C(C)NNC(=O)c1ccc(O)cc1O [compound 56] :: 0.0011 µg/mL
18. CC1=NN(c2ccc(C(C)(C)C)cc2)C(=O)C1=C(C)NNC(=O)c1cc(O)cc(O)c1 [compound 2] :: 0.0063 µg/mL
19. CC1=NN(c2ccc(C(C)(C)C)cc2)C(=O)C1=C(C)NNC(=O)c1ccc(C(F)(F)F)cc1 [compound 71] :: 0.069 µg/mL
20. CC1=NN(c2ccc(Cl)c(Cl)c2)C(=O)C1=C(C)NNC(=O)c1ccc(O)cc1 [compound 62] :: 0.0064 µg/mL
21. CC1=NN(c2cccc(C(F)(F)F)c2)C(=O)C1=C(C)NNC(=O)c1ccc(O)cc1 [compound 46] :: 0.015 µg/mL
22. CC1=NN(c2ccc(Cl)c(Cl)c2)C(=O)C1=C(C)NNC(=O)c1ccccc1[N+](=O)[O-] [compound 66] :: 0.033 µg/mL
23. CC1=NN(c2ccc(C(C)(C)C)cc2)C(=O)C1=C(C)NNC(=O)c1cccc(C(=O)O)c1 [compound 12] :: 0.076 µg/mL
24. CC1=NN(c2ccc(C(C)(C)C)cc2)C(=O)C1=C(C)NNC(=O)c1ccc(O)cc1O [compound 26] :: 0.0029 µg/mL
25. CC1=NN(c2ccc(I)cc2)C(=O)C1=C(C)NNC(=O)c1ccc(O)c(O)c1 [compound 41] :: 0.032 µg/mL
26. CC1=NN(c2ccc(C(C)(C)C)cc2)C(=O)C1=C(C)NNC(=O)c1cccc(N)c1 [compound 70] :: 0.023 µg/mL
27. CC1=NN(c2ccc(C(C)(C)C)cc2)C(=O)C1=C(C)NNC(=O)c1ccc(O)c(O)c1 [compound 27] :: 0.0056 µg/mL
28. CC1=NN(c2ccccc2)C(=O)C1=C(C)NNC(=O)c1ccc(O)cc1 [compound 17] :: 0.079 µg/mL
29. CC1=NN(c2ccc(C(F)(F)F)cc2)C(=O)C1=C(C)NNC(=O)c1ccc(N)cc1 [compound 92] :: 0.0055 µg/mL
30. CC1=NN(c2ccc(C(F)(F)F)cc2)C(=O)C1=C(C)NNC(=O)c1ccc([N+](=O)[O-])cc1 [compound 37] :: 0.14 µg/mL
31. CC1=NN(c2ccc(C)c(C)c2)C(=O)C1=C(C)NNC(=O)c1cccc(O)c1 [compound 82] :: 0.026 µg/mL

----------
Efficacy (%) (maximal growth rate) reference
# ASSAYED TARGET: human TPO receptor (Homo sapiens, UniProt P40238)
# Construct: expressed in transfected cells
# PROCEDURE TEXT: Proliferation of TPO-dependent cell line UT7/EPO-mpl, MTT method (Assay Examples 1, 3, 4)
# Format: cell-based
# CONDITIONS: UT7/EPO-mpl cells; value in the presence of 10 ng/ml TPO taken as 100% standard; method of Assay Example 1
MEASURED METRIC: Efficacy (%) (maximal growth rate)

1) CC1=NN(c2cccc(C(F)(F)F)c2)C(=O)C1=C(C)NNC(=O)c1ccc(N)cc1 [compound 90] :: 76
2) CC1=NN(c2ccc(Cl)c(Cl)c2)C(=O)C1=C(C)NNC(=O)c1ccccc1[N+](=O)[O-] [compound 66] :: 133
3) CC1=NN(c2ccc(I)cc2)C(=O)C1=C(C)NNC(=O)c1ccccc1O [compound 38] :: 93
4) CC1=NN(c2cccc(C(F)(F)F)c2)C(=O)C1=C(C)NNC(=O)c1ccc(C(=O)O)cc1 [compound 9] :: 90
5) CC1=NN(c2ccc(C)c(C)c2)C(=O)C1=C(C)NNC(=O)c1ccc(N)cc1 [compound 73] :: 84

Where these numbers come from: patent US8053453B2
